# measured-target: T1, IL-1beta (UniProt P01584 117-269)
# T1 construct: also called IL-1β
# measurement-protocol: Biacore
Here the recorded fold difference in affinity vs parental is given for each entry.
The figure you give is taken to be in fold; do not add the unit.

# fold difference in affinity vs parental of XPA23 Fab, heavy chain P53Y (Fab, V domains shown) VH: EVQLLESGGGLVQPGGSLRLSCAASGFTFSKYFMFWVRQAPGKGLEWVSVISYSGGMTRYADSVKGRFTISRDNSKNTLYLQMNSLRAEDTAVYYCARVGYGGNSDYWGQGTLVTVSS VL: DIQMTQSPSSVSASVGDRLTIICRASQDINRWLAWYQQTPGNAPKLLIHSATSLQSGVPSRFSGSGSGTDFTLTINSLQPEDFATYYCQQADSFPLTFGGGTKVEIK = 0.03

# fold difference in affinity vs parental of XPA23 Fab, heavy chain D106N (Fab, V domains shown) VH: EVQLLESGGGLVQPGGSLRLSCAASGFTFSKYFMFWVRQAPGKGLEWVSVISPSGGMTRYADSVKGRFTISRDNSKNTLYLQMNSLRAEDTAVYYCARVGYGGNSNYWGQGTLVTVSS VL: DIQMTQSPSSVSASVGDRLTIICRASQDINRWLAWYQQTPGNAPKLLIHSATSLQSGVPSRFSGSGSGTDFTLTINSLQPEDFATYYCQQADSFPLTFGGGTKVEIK = 0.07

# fold difference in affinity vs parental of XPA23 Fab, heavy chain Y107E (Fab, V domains shown) VH: EVQLLESGGGLVQPGGSLRLSCAASGFTFSKYFMFWVRQAPGKGLEWVSVISPSGGMTRYADSVKGRFTISRDNSKNTLYLQMNSLRAEDTAVYYCARVGYGGNSDEWGQGTLVTVSS VL: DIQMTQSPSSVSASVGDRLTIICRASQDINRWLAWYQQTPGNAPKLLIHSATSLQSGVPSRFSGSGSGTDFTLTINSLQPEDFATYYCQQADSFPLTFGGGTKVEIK = 0.9
